system: DU-145 prostate; assay: NCI-60 one-dose screen, 48 h; settings: 10 µM unless noted
About 83,000 compounds went through this panel and 20% of them were active in at least one assay; those are over-represented in the sample as a whole. Activity calls are given as the source filed them. The calls were made as follows: active = growth percent below 10; inactive = the rest.
Parameter call: string, one of active, inactive

Per the records of this test, what outcome belongs to CC1CC(C(C)(C)C)C(=O)C(C(C)(C)C)C1 (configuration not stated) ?
inactive

Per the records of this test, what outcome belongs to N#Cc1c(-c2cccc(Cl)c2)cc(-c2cccc(F)c2)[nH]c1=O ?
inactive

Per the records of this test, what outcome belongs to Cc1nc2ccccc2c(/C=C/c2ccc(Cl)cc2)c1C(=O)/C=C/c1ccc(F)cc1 ?
active

Per the records of this test, what outcome belongs to C[C@@]1(CCC#N)[C@H]2CC[C@@H]3[C@H]4[C@H](C(=O)/C=C/c5cccnc5)CC[C@]4(C#N)CC[C@@]3(C)[C@]2(C)CC[C@H]1C(=O)/C=C/c1cccnc1 ?
inactive

Per the records of this test, what outcome belongs to O=C(CSc1nnc(-c2ccc(NC(=O)c3cccnc3)cc2)o1)N[C@@H](Cc1ccc(O)cc1)C(=O)O ?
inactive

Per the records of this test, what outcome belongs to Cn1c2c(c3ccc(Cl)c(Cl)c31)C(C#N)C1(CCNCC1)NC2=O (configuration not stated) ?
inactive

Per the records of this test, what outcome belongs to CCN(CC)CCCCCCNc1cc(OC)c(Cl)c2cccnc12 ?
inactive

* * *

Form field: growth (one value per entry).
system: UACC-62 melanoma; test: NCI-60 one-dose screen, 48 h (100 = growth as untreated, 0 = no growth, -100 = all killed); details: 10 µM unless noted
About 83,000 compounds went through this panel and 20% of them were active in at least one assay; those are over-represented in the sample as a whole.
Answer format: numeric, % implied, no suffix.

Below: 8 molecules and their reported growth.
Return growth for the following molecule: Cc1ccc(S(=O)(=O)n2cc(CNc3ccc(N4CCOCC4=O)cc3)c3ccccc32)cc1
78.2

Return growth for the following molecule: CCN(CC)CCCC(C)Nc1c2ccc(Cl)cc2nc2ccc(O)cc12 (stereo not drawn)
82.3

Return growth for the following molecule: Cc1ccc(Cl)c(NS(=O)(=O)c2ccc(-c3cnc(C4CC4)o3)cc2)c1
26.5

Return growth for the following molecule: COc1ccc(C(=O)/C=C/c2c(C(F)(F)F)nc3sccn23)cc1OC
20.6

Return growth for the following molecule: O=C(Nc1ccc(Nc2ccncc2)cc1)c1ccc(C(=O)Nc2ccc(Nc3ccncc3)cc2)cc1
38.3

Return growth for the following molecule: Cc1ccc(C2SCC(=O)N2Cc2ccccc2)cc1 (stereo not drawn)
91.7

Return growth for the following molecule: COc1cc2c(cc1-c1c(C)noc1C)ncc1nc(C3CCCCC3)n(C3CCC(OC(F)F)CC3)c12 (stereo not drawn)
22.3

Return growth for the following molecule: NC(=O)c1ccc[n+]([C@@H]2O[C@H](COP(=O)([O-])OP(=O)(O)OC[C@H]3O[C@@H](n4cnc5c(N)ncnc54)[C@H](O)[C@@H]3O)[C@@H](O)[C@H]2O)c1
119

New cases:
Return growth for the following molecule: O=S(=O)(O)c1ccc(N/N=C/c2ccccc2Cl)cc1
111

Return growth for the following molecule: O=C(c1ccccc1)c1c(/C=C/c2ccccc2)nc2ccccc2c1/C=C/c1ccc(Br)cc1
82

Return growth for the following molecule: N/C(=N\c1nc2ccccc2s1)NC(=O)Nc1cccc(Cl)c1
25.8

Return growth for the following molecule: O=[N+]([O-])c1ccc(OCCO)cc1
96.9

Return growth for the following molecule: CCN(CCNc1ccc(C)c2sc3ccccc3c(=O)c12)CC(C)(C)O
53.6
